EXPERIMENTAL TARGET: T1, interleukin 18 binding protein (IL-18BP) (UniProt O95998 31-194)
T1 sequence (looked up): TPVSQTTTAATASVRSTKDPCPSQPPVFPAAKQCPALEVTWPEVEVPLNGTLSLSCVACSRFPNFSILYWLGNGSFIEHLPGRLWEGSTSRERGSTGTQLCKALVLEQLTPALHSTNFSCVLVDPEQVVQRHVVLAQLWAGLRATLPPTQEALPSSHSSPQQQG
EXPERIMENT NOTES: cell-based or functional assay
QUANTITY NAME: Ratio (-BP/+BP), DF-100,000

The cases that follow already have their Ratio (-BP/+BP), DF-100,000 on record.
BINDER	Ratio (-BP/+BP), DF-100,000
IL-18 variant K53Y, S55V (ligand) YFGKLESKLSVIRNLNDQVLFIDQGNRPLFEDMTDSDMRDNAPRTIFIISMYYDVQPRGMAVTISVKSEKISTLSSENKIISFKEMNPPDNIKDTKSDIIFFQRSVPGHDNKMQFESSSYEGYFLASEKERDLFKLILKKEDELGDRSIMFTVQNED	1.44
IL-18 variant K53H, S55H (ligand) YFGKLESKLSVIRNLNDQVLFIDQGNRPLFEDMTDSDMRDNAPRTIFIISMYHDHQPRGMAVTISVKSEKISTLSSENKIISFKEMNPPDNIKDTKSDIIFFQRSVPGHDNKMQFESSSYEGYFLASEKERDLFKLILKKEDELGDRSIMFTVQNED	0.99

Let's switch to this binder now.
Ratio (-BP/+BP), DF-100,000 measured on IL-18 variant K53D, S55Q, H109Y (ligand) YFGKLESKLSVIRNLNDQVLFIDQGNRPLFEDMTDSDMRDNAPRTIFIISMYDDQQPRGMAVTISVKSEKISTLSSENKIISFKEMNPPDNIKDTKSDIIFFQRSVPGYDNKMQFESSSYEGYFLASEKERDLFKLILKKEDELGDRSIMFTVQNED = 1.36
